Biological target: human LARP1 LaM domain (residues 323–410) (Homo sapiens)
Construct: human LARP1 LaM domain (residues 323–410); made in house; host or cells: E. coli
Test: Isothermal titration calorimetry (ITC) of RNA ligands binding LARP1 (323-410)
Reported Property: Kd (nM)
Numbers only, in nM.

// Nc1nc2c(ncn2[C@@H]2O[C@@H]3COP(=O)(O)O[C@H]4[C@@H](O)[C@H](n5cnc6c(N)ncnc65)O[C@@H]4COP(=O)(O)O[C@H]3[C@H]2O)c(=O)[nH]1 [3',3'-cGAMP, 3‘,3’-cGAMP] : Kd value = 700

====

Biological target: human LARP1 LaM domain (residues 323–410) (Homo sapiens, UniProt Q6PKG0)
Construct: human LARP1 LaM domain (residues 323–410); made in house; host or cells: E. coli
Test: Isothermal titration calorimetry (ITC) of RNA ligands binding LARP1 (323-410)
Settings: ITC, 20°C, LaM in cell, RNA in syringe
Please go through the items and note down their ΔS.
Answers are plain numbers, in cal mol^-1 K^-1.

// known answers, use as guide
{"Substance": "5´-APAPAPAPGPA-3´ [AAAAGA]", "ΔS [cal mol^-1 K^-1]": -68.0}
{"Substance": "5´-APAPAPAPAPG-3´ [AAAAAG]", "ΔS [cal mol^-1 K^-1]": -62.3}
{"Substance": "5´-APAPAPAPAPSA-3´ [(SP)-AAAAAPSA]", "ΔS [cal mol^-1 K^-1]": -57.1}
{"Substance": "5´-APAPAPAPAPA-3´ [AAAAAA]", "ΔS [cal mol^-1 K^-1]": -37.6}
{"Substance": "5´-UPUPUPUPUPU-3´ [UUUUUU]", "ΔS [cal mol^-1 K^-1]": -46.6}
{"Substance": "5´-APAPAPGPAPA-3´ [AAAGAA]", "ΔS [cal mol^-1 K^-1]": -63.2}

Please find the next substance below.
Item 5´-APAPAPAPAPSA-3´ [(RP)-AAAAAPSA] was tested on human LARP1 LaM domain (residues 323–410) (Homo sapiens, UniProt Q6PKG0); the reported ΔS is -36.2
